Below: a set of entries, each annotated with reported Activity.
- Test system: RAW264.7
- Run description: Cytotoxicity against mouse RAW264.7 cells assessed as reduction in cell viability at 25 uM after 48 hrs by MTT assay relative to control
- Format: cell-based
- Test conditions: raw264.7, 48 h
The reply should contain only the number, in %.

Sample records with Activity:
COc1ccc(NC(=O)Nc2cccc(-c3nc4cc(C)ccc4o3)c2)cc1    11.09
Cc1ccc2oc(-c3cccc(NC(=S)Nc4ccc(F)cc4)c3)nc2c1    81.92
O=C(Nc1ccc(Cl)cc1)Nc1cccc(-c2nc3ccccc3o2)c1    38.91
Cc1ccc2oc(-c3cccc(NC(=O)Nc4ccc(Cl)cc4)c3)nc2c1    1.09

Here is another compound to look at.
Quick note, Activity for Cc1ccc2oc(-c3cccc(NC(=S)Nc4ccc([N+](=O)[O-])cc4)c3)nc2c1 landed at 98.1
